- SUBJECT_OF_TEST: DNA gyrase (Escherichia coli, UniProt P0AES4+P0AES6)
- MEASUREMENT_NOTES: Inhibition of Escherichia coli DNA gyrase supercoiling using relaxed pNO1 as substrate measured after 30 mins by SybrGOLD staining based fluorescence analysis
pIC50: −log10 of the molar value.
Would you mind labelling by pIC50? At or over 6 is 1, under is 0.

Use the examples below as a reference point.
INSERT INTO assay_data (smiles_data, assigned_class) VALUES
  ('Cc1[nH]c(C(=O)/N=c2\sc3cc(NC(=O)C(=O)O)ccc3n2Cc2ccc(C(=O)O)cc2)c(Cl)c1Cl', 1),
  ('CC(=O)Nc1ccc2nc(N(Cc3ccc(C(=O)O)cc3)C(=O)c3[nH]c(C)c(Cl)c3Cl)sc2c1', 0),
  ('CC(=O)Nc1ccc2nc(N(Cc3cccc(C(=O)O)c3)C(=O)c3[nH]c(C)c(Cl)c3Cl)sc2c1', 0);

Check the entry `CC(=O)Nc1ccc2c(c1)s/c(=N\C(=O)c1[nH]c(C)c(Cl)c1Cl)n2Cc1cccc(C(=O)O)c1` : does pIC50 equal or exceed 6? 1

Check the entry `Cc1[nH]c(C(=O)N(Cc2cccc(C(=O)O)c2)c2nc3ccc(NC(=O)C(=O)O)cc3s2)c(Cl)c1Cl` : does pIC50 equal or exceed 6? 0

Check the entry `CC(=O)Nc1ccc2c(c1)s/c(=N\C(=O)c1[nH]c(C)c(Cl)c1Cl)n2Cc1ccccc1` : does pIC50 equal or exceed 6? 0

Check the entry `Cc1[nH]c(C(=O)/N=c2\sc3cc(NC(=O)C(=O)O)ccc3n2Cc2ccccc2)c(Cl)c1Cl` : does pIC50 equal or exceed 6? 1

Check the entry `CC(=O)Nc1ccc2c(c1)s/c(=N\C(=O)c1[nH]c(C)c(Cl)c1Cl)n2CCc1ccccc1` : does pIC50 equal or exceed 6? 1

====

- SUBJECT_OF_TEST: DNA gyrase (Escherichia coli, UniProt P0AES4+P0AES6)
- MEASUREMENT_NOTES: Inhibition of Escherichia coli DNA gyrase supercoiling using relaxed pNO1 as substrate measured after 30 mins by SybrGOLD staining based fluorescence analysis
Each record is given condition met if its reported IC50 is strictly below 600 nM. Records at or above 600 nM are given condition not met.

Use the examples below as a reference point.
INSERT INTO assay_data (smiles_data, assigned_class) VALUES
  ('Cc1[nH]c(C(=O)N(CCc2ccccc2)c2nc3ccc(NC(=O)C(=O)O)cc3s2)c(Cl)c1Cl', 'condition not met'),
  ('CC(=O)Nc1ccc2nc(N(CCc3ccccc3)C(=O)c3[nH]c(C)c(Cl)c3Cl)sc2c1', 'condition not met');

IC50 strictly < 600 nM for this molecule? `CC(=O)Nc1ccc2nc(N(Cc3ccccc3)C(=O)c3[nH]c(C)c(Cl)c3Cl)sc2c1` condition not met

IC50 strictly < 600 nM for this molecule? `Cc1[nH]c(C(=O)N(Cc2ccc(C(=O)O)cc2)c2nc3ccc(NC(=O)C(=O)O)cc3s2)c(Cl)c1Cl` condition not met

IC50 strictly < 600 nM for this molecule? `Cc1[nH]c(C(=O)/N=c2\sc3cc(NC(=O)C(=O)O)ccc3n2CCc2ccccc2)c(Cl)c1Cl` condition met

IC50 strictly < 600 nM for this molecule? `Cc1[nH]c(C(=O)N(Cc2ccccc2)c2nc3ccc(NC(=O)C(=O)O)cc3s2)c(Cl)c1Cl` condition met

IC50 strictly < 600 nM for this molecule? `Cc1[nH]c(C(=O)/N=c2\sc3cc(NC(=O)C(=O)O)ccc3n2Cc2cccc(C(=O)O)c2)c(Cl)c1Cl` condition met
